Entry source: PubChem BioAssay (Tox21)

- Assay method text: qHTS assay to identify small molecule agonists of the progesterone receptor (PR) signaling pathway - cell viability counter screen (AID 1346799); note: nearly all actives have a fitted effect of over 45% in size
- Run parameters: PR-UAS-bla HEK293T viability, CellTiter-Glo luminescence, 16 h; series mostly up to 92.4 µM
Results filed as inconclusive are left out. The source made the active and inactive calls. Calls come from the whole dose curve.
Possible outcomes: class 1 = active, class 0 = inactive

Compound | Answer label
Cc1ccc2ccc3cccc4ccc1c2c34 | class 1
CC(C)C(=O)OCc1ccccc1 | class 0
CCCCCCS | class 0
CCCCCCCCC(C)=O | class 0
NC(=O)C(=O)N/N=C/c1ccc([N+](=O)[O-])o1 | class 0
CC(=O)Nc1ccc(O)cc1 | class 0
O=C1OC(=O)c2cccc3cccc1c23 | class 0
COc1ccccc1C=O | class 0
CO[Si](CCCNCCNCCN)(OC)OC | class 0
CCc1cccc(C)c1 | class 0
C=CC(C)(CCC=C(C)C)OC(=O)/C=C/c1ccccc1 (stereo not given) | class 0
CCCCCCCCCCCCCc1ccccc1 | class 0
CC(=O)OC1CCCCC1 | class 0
Cc1nc(Nc2ncc(C(=O)Nc3c(C)cccc3Cl)s2)cc(N2CCN(CCO)CC2)n1 | class 0
CCOC(=O)COc1ccc(C)cc1 | class 0

----------
- Target of assay: Nuclear receptor subfamily 1 group I member 3 (Homo sapiens) (UniProt Q14994)
- Sequence (Q14994 whole entry, looked up): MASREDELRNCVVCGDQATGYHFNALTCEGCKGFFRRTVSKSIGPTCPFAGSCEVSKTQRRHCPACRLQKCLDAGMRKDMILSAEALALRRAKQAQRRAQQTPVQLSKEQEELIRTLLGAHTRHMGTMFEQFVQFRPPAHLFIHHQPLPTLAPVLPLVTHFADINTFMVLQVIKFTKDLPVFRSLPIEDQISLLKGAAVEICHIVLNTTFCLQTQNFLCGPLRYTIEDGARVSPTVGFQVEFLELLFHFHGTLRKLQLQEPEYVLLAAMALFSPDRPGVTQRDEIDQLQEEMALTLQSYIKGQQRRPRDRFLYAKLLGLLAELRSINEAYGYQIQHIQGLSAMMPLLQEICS
- Assay method text: qHTS assay to identify small molecule agonists of the constitutive androstane receptor (CAR) signaling pathway (AID 1224839);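 note: HepG2 cells stably carrying human CAR and a CYP2B6 luciferase reporter; % is set by controls: 0 for no effect and ±100 for the full control effect; nearly all actives have a fitted effect of over 15% in size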
- Run parameters: HepG2 hCAR CYP2B6-luciferase, agonist mode, 24 h; series mostly up to 92.4 µM
Inconclusive results are not listed. The source made the active and inactive calls. Calls come from the whole dose curve; as a rule, active = well fitted activation curve with a large enough effect in the repeat runs; inconclusive = weak or mixed curves; inactive = no such curve, though single readings can be large or run the other way.

Mol smiles | activation
COc1cc(C(C)C)c2c(c1)S(=O)(=O)N(COc1cc(=O)n3cccc(OCCN4CCCCC4)c3n1)C2=O | -2.29% [at 19 µM] (inactive)
N[C@@H](CSSC[C@H](N)C(=O)O)C(=O)O | -0.0368% [at 0.349 µM] (inactive)
O=C=NCc1cccc(CN=C=O)c1 | -1.77% [at 19 µM] (inactive)
CCCCCCCCCCCCCCCCCO | 0.0374% [at 19 µM] (inactive)

----------
- Assay method text: qHTS assay to identify small molecule agonists of the androgen receptor (AR) signaling pathway in the presence of an antagonist - cell viability counter screen (AID 1259379); note: nearly all actives have a fitted effect of over 25% in size
- Run parameters: MDA-kb2 viability, CellTiter-Fluor, 16 h; series mostly up to 92.4 µM
Records with an inconclusive call do not appear. Active and inactive are the calls of the source. The call rests on the fitted dose curve; in most records, active means well fitted cell-killing curve with a large enough effect in the repeat runs; inconclusive means weak or mixed curves, or effect the other way; inactive means flat fitted curve, though single readings scatter.
Possible outcomes: TRUE = active, FALSE = inactive

Molecule | Answer label
CC(NCCC(c1ccccc1)c1ccccc1)c1ccccc1 (centres undefined) | TRUE
NCCCC(O)(P(=O)(O)O)P(=O)(O)O | FALSE
Cc1ccc2ccc3cccc4ccc1c2c34 | FALSE
O=C(O)CC(=O)O | FALSE
S=P(N1CC1)(N1CC1)N1CC1 | FALSE
C[C@@H]1CC[C@H]2C(C)(C)[C@H]3C[C@@]12CC[C@@]3(C)O | FALSE
Clc1ccccc1CN1CCc2sccc2C1 | FALSE
CCN=C1C=CC(=C(c2ccc(N(CC)CC)cc2)c2ccc(N(CC)CC)cc2)c2ccccc21 | TRUE
O=C(O)c1cccc(Cl)n1 | FALSE
CC(C)(C)c1cc(/C=C2\SC(=N)NC2=O)cc(C(C)(C)C)c1O | FALSE
OCCCS | FALSE
CCC(=O)OCCc1ccccc1 | FALSE
CCCC(=O)OCC(COC(=O)CCC)OC(=O)CCC | FALSE
CCN(CC)c1cccc(C)c1 | FALSE
